Source of measurements: paper PMC5770965

- Assay System: KIX domain of CBP (UniProt P45481 586-665)
- Sequence (P45481 586-665): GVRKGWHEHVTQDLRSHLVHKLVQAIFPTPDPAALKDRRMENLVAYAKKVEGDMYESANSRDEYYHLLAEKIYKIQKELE
- Method Description: fluorescence polarisation; equilibrium fluorescence anisotropy; KIX titrated into N-terminally FITC-labelled pKID peptide; biophysical buffer and conditions as in the accompanying article (ref. 42); KdEqub
- Condition Details: both partners purified
Non-standard residues stand in square brackets, D forms with d. No end group written: not given here. *: point of attachment. FITC = O=C1OC2(c3ccc(O)cc3Oc3cc(O)ccc32)c2ccc(NC(=S)*)cc21; pS = N[C@@H](COP(=O)(O)O)C(=O)O
Reported Endpoint: Kd (nM)

// solved cases for Kd follow
Which Kd value is on record for {FITC}-DSVTDSQKRREILSRRP[pS]ARKILNDLSSDAP (peptide, UniProt P15337-1 116-146, looked up, source: synthetic peptide, bought: Biomatik) [FITC-pKID Y134A] ? 111000

Which Kd value is on record for {FITC}-DSVTDSQKRREILSRRP[pS]YRKILNDLSSDAP (peptide, UniProt P15337-1 116-146, looked up, also called wtFITCpKID; source: synthetic peptide, bought: Biomatik) [FITC-pKID wild-type (CREB residues 116-146, phosphorylated at Ser133)] ? 110

1. {FITC}-DSVTDAQKRREILSRRP[pS]YRKILNDLSSDAP (peptide, UniProt P15337-1 116-146, looked up, source: synthetic peptide, bought: Biomatik) [FITC-pKID S121A]
2. {FITC}-DSVTDSQKRREILSRRP[pS]YRKILNALSSDAP (peptide, UniProt P15337-1 116-146, looked up, source: synthetic peptide, bought: Biomatik) [FITC-pKID D140A]
When their Kd values are compared, which is larger, 1 or 2 ? Selection: enter the item's label. 2
(2: 260 nM, 1: 120 nM)
